Test system: MS2 coat protein
measurement.notes: apparent KD of MS2 coat protein, switch OFF state (with FMN for OFF switches, without FMN for ON switches); designed switch direction (-1 OFF switch, 1 ON switch): -1; higher = weaker reporter binding
condition.context: FMN input: 0 or 200 uM; Eterna round: R93 (includes R88 designs)
result.type: apparent KD of MS2 coat protein

AAGAAGUCAGGAUAUGCUGCUCGUCACUUGCGUGAUGAGUAGCAGAAGGGACAUGAGGAUCACCCAUGUGGAAA [Modifying Chris (69%) Late G segment 2]    246 nM
AGAAUACAUGAGGAUCACCCAUGUGAGGAUAUGUGAAGAAAAAGAAAAGAAAAGAAACACAGAAGGCACAAAAG [EX 1 May 17]    69.3 nM
AUAAGUGCAGGAUAUACAAAAUGCUAGCGAAAGCUAGCAUAACAUGAGGAUCACCCAUGUAGAAGGGCACAAUA [Tetraloop hairpin BlockHead... 61% 1]    18.4 nM
AAAUGACAUGAGGAUCACCCAUGUCAGGAUAUGACUUGAAAAAAAAAAAAAAAACAUGUCAGAAGGGACAUGGA [Design 51: Sub-opt G]    22.2 nM
AAGAAUGAAGGAUAUACAAGGAAGAAAGAAAAGAAAAGAAAACAUGAGGAUCACCCAUGUAGAAGGUCAUAGAA [EteRNA is fun!]    26.3 nM
AGCUAGCGAGGAUAUACGAACAUGUCAAAAGACGUGAAGGGACAUGAGGAUCACCCAUGUAGAAGGCGCUAGCA [JL 74% mod 5]    144 nM

====

In this section we review reported apparent KD of MS2 coat protein values for a set of sequences.
Tested on: MS2 coat protein
measurement.notes: apparent KD of MS2 coat protein; designed switch direction (-1 OFF switch, 1 ON switch): -1; higher = weaker reporter binding
condition.context: input ligand: none
result.type: apparent KD of MS2 coat protein (nM)

AUCUUUGCUCGUCAAAUUUACAUGAGGAUCACCCAUGUCUACCUGAGUGCGUCGGGACUGUACGUCAGCCGGUGGAA [Eternabot (L2) Solution 15] (Eterna round: R97, puzzle: Sensor, turn-off variant 1)    25
GCAGCAACUCUAAUCAACCAAACAUGAGGAUCACCCAUGUCUCAGGAUAUGGUCUGGAUUACAGGCCAGAAGGGAGAAAGCUGC [Eli exng3 - 044] (Eterna round: R96, puzzle: Exclusion NG 3)    13.4

====

System: K4 kissing-loop RNA reporter;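 further: bound reporter read as fluorescence of individual clusters on recovered sequencing chips by microscopy, with normalized cluster intensities fitted with a binding model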
measurement.notes: apparent KD of K4 kissing-loop reporter; higher = weaker reporter binding
condition.context: Eterna round: R107; input ligand: tryptophan 2.4 mM
result.type: apparent KD of K4 kissing-loop reporter (nM)

CUUAGGAGUGGUGUUGAUUAGGGAGCGGAAGGAGCGCCAAUGAUGGCAGGUAGGUCGCCGGAAUAUAGUGAUGUUAUAUAGAGGG [ExArgA.Q]    222
CAUGAGUGAUGUUCGUGCGCUUGGUCGAAGCGAGGACCGGUACGGCCGCCACUCGCUAUGGCGGCAUCUACCAGUGAUGUUGGUG [Same State Tryptophan A GF 2]    208
ACACUAUCGUCAUAGACGGUAGUGAAAUCACAGGAUAUAAGUGAUGUUAGAAGGGUGAAAGACUGUAUCGAAUAGAUACAGUCAA [FmnA 3 #K4BetweenAptamer #OpenEnded]    878

Where these numbers come from: the supplement of paper PMC9170038
